molecular target: Cbl-B (Homo sapiens, UniProt Q13191); construct: MSD-Based Assay for Degradation of Cbl-B in THP-1 Cells; endogenous in cells; host or cells: THP-1 (title) / Jurkat (protocol text); assay: MSD-based assay for degradation of Cbl-B in THP-1 cells; type: cell-based; settings: Cbl-B degradation, Jurkat cells seeded (heading: THP-1 cells), 24 hours incubation, MSD readout
Sequence (Q13191 whole entry): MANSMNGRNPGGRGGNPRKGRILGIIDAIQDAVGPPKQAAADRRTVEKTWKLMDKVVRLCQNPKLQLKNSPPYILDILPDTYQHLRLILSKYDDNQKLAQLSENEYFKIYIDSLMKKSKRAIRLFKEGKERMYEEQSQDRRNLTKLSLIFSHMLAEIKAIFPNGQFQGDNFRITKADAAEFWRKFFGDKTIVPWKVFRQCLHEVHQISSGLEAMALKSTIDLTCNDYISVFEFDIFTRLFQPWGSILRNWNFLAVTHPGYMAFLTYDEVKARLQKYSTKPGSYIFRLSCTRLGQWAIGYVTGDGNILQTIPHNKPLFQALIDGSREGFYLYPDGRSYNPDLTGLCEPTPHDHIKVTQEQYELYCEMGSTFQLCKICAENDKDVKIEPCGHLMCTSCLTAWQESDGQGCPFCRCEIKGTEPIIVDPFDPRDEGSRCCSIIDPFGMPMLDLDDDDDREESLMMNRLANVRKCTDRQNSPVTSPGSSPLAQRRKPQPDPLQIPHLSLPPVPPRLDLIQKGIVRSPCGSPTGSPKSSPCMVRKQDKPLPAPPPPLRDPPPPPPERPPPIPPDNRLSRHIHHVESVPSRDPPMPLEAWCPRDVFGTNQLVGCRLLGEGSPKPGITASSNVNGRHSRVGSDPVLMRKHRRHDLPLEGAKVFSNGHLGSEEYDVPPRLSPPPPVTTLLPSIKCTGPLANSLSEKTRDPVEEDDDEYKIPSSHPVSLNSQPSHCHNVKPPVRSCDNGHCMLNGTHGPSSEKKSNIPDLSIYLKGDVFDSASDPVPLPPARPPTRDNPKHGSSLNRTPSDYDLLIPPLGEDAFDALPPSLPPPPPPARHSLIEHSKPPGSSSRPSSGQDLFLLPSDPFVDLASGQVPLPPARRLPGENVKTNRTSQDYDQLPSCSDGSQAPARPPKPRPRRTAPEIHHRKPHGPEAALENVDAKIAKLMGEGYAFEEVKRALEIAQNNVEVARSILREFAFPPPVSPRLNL
Measurement Kind: DC50

# DC50 lookup, item Cn1cnnc1CC1(c2cccc(-n3cc4c(C(F)(F)F)cc(CN5CCN(CCc6ccc(C7CCN(c8ccc9c(c8)CN([C@H]8CCC(=O)NC8=O)C9=O)CC7)cc6)CC5)cn4c3=O)c2)COC1 < 30 nM

// next record Cn1cnnc1[C@@H](c1cccc(-n2cc3c(C(F)(F)F)cc(CN4CCC(C5CCN(C(=O)c6ccc(N7CCN(c8ccc9c(c8)CN([C@@H]8CCC(=O)NC8=O)C9=O)CC7)cc6)CC5)CC4)cn3c2=O)c1)C1CCC1 (single isomer, unassigned) 300 to 1000 nM

// next record Cn1cnnc1[C@@H](c1cccc(-n2cc3c(C(F)(F)F)cc(CN4CCC[C@H](OC5CCN(C(=O)c6ccc(N7CCN(c8ccc9c(c8)CN([C@@H]8CCC(=O)NC8=O)C9=O)CC7)cc6)CC5)C4)cn3c2=O)c1)C1CCC1 (single isomer, unassigned) 30 to 300 nM

// next record Cn1cnnc1[C@@H](c1cccc(-n2cc3c(C(F)(F)F)cc(CN4CCC(OC(=O)N5CCC(CN6CCN(c7ccc8c(c7)CN([C@@H]7CCC(=O)NC7=O)C8=O)CC6)CC5)CC4)cn3c2=O)c1)C1CCC1 30 to 300 nM
